Biological target: Steroid 5-alpha-reductase (Rattus norvegicus, UniProt P24008+P31214)
Test: Inhibitory concentration against rat Steroid 5-alpha-reductase
Format: protein assay
Readout Type: IC50 (µM)
Please respond with the number in µM and leave the unit unwritten.

Write down IC50 measured for item COc1cc2c(cc1OC)-c1c(oc3c4c(cc(O)c3c1=O)OC(C)(C)C=C4)CO2
48.7

Name the recorded IC50 of the item CC(C)(O)C1Cc2c(ccc(-c3coc4cc(O)cc(O)c4c3=O)c2O)O1 (stereo not drawn) in your answer.
23.1

Give IC50 for the following compound: COc1cc2c(c3occ(-c4ccc(OCc5ccccc5)cc4OCc4ccccc4)c(=O)c13)C(=O)CC(C)(C)O2
31

Dear colleague, please send me the reported IC50 for CC(C)(O)C1Cc2c(ccc(-c3coc4cc5c(c(O)c4c3=O)CC(C(C)(C)O)O5)c2O)O1 (stereo not drawn) when you can.
26.2

Give IC50 for C=C(C)C1Cc2c(cc3occ(-c4ccc(O)cc4O)c(=O)c3c2O)O1 (stereo not drawn)
15.7

Look up IC50 of COc1ccc(-c2coc3c4c(cc(OC)c3c2=O)OC(C)(C)C=C4)c(OC)c1 and report it.
30.1

Answer with reported IC50 of COc1cc2c(c3occ(-c4ccc(OCc5ccccc5)cc4OCc4ccccc4)c(=O)c13)C=CC(C)(C)O2
27.4

Using known records, supply IC50 for CC(C)(O)C1Cc2c(O)ccc(-c3coc4cc(O)cc(O)c4c3=O)c2O1 (stereo not drawn)
6.9
